# study_target: T1, human CXCR5 (human, UniProt P32302 1-372)
# T1 construct: whole, on cells; Always presented on cells; one entry is used for all cell lines; also called hCXCR5; C-X-C chemokine receptor type 5
# T1 sequence (looked up): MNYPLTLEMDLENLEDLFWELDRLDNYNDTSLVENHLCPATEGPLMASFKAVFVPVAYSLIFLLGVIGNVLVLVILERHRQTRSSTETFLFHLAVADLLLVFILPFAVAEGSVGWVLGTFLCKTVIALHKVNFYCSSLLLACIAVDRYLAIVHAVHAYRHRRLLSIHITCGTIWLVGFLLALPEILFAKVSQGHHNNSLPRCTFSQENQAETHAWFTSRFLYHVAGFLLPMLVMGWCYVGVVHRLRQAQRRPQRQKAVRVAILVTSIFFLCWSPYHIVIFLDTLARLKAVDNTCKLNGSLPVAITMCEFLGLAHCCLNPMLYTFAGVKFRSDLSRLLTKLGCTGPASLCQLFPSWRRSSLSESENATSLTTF
# assay_method_text: binding to hCXCR5, Exp 2 (assay not given)
readout: pEC50
# pEC50 is unitless: minus log10 of the molar concentration; print number only

The examples below pair each entry with its known result.
The recorded pEC50 for entry HFB2-4hz14-hG1DE (antibody, V domains shown, Humanized (VH3/VL1b), human IgG1 with S239D/I332E (hG1DE)) VH: QVQLQESGPGLVKPSETLSLTCTVSGFSLTSYGVSWVRQPPGKGLEWIGVIWGDGSTNYNPSLKSRVTISKDTSKNQVSLKLSSVTAADTAVYYCARVVYWGQGTLVTVSS VL: DIVMTQSPLSLPVTPGEPASISCRSSQSLLHSNGYNYLYWFLQKPGQSPQLLIYRGSNRASGVPDRFSGSGSGTDFTLKISRVEAEDVGVYYCMQHLQYPYTFGGGTKVEIK equals 10.00

The recorded pEC50 for entry HFB2-4hG1DE (antibody, V domains shown, Chimeric HFB2-4 in the DE scaffold: human IgG1 constant region with S239D/I332E; also called HFB2-4DE) VH: QVQLKESGPGLVAPSQSLSITCTVSGFSLTSYGVSWVRQPPGKGLEWLGVIWGDGSTNYHSGLISRLSISKDNSKSQVFLKLNSLQSDDTATYYCARVVYWGQGTLVTVSA VL: DIVMTQAAPSVPVTPGESISISCRSSKSLLHSNGKTYLYWFLQRPGQSPQLLLYRMSNLASGVPDRFSGSGSGTAFTLRISRVEAEDVGVYYCMQHLEYPYTFGGGTKLEIK equals 8.89

The recorded pEC50 for entry HFB2-4hz12-hG1DE (antibody, V domains shown, Humanized (VH3/VL4), human IgG1 with S239D/I332E (hG1DE); also called HFB2-4hz12hIgDE) VH: QVQLQESGPGLVKPSETLSLTCTVSGFSLTSYGVSWVRQPPGKGLEWIGVIWGDGSTNYNPSLKSRVTISKDTSKNQVSLKLSSVTAADTAVYYCARVVYWGQGTLVTVSS VL: DIQMTQSPSSLSASVGDRVTITCRSSKSLLHSNGKTYLYWFQQKPGKAPKLLIYRMSNLASGVPSRFSGSGSGTDFTLTISSLQPEDFATYYCMQHLEYPYTFGGGTKVEIK equals 9.52

The recorded pEC50 for entry HFB2-4hz9-hG1DE (antibody, V domains shown, Humanized (VH3/VL1), human IgG1 constant region with S239D/I332E (hG1DE)) VH: QVQLQESGPGLVKPSETLSLTCTVSGFSLTSYGVSWVRQPPGKGLEWIGVIWGDGSTNYNPSLKSRVTISKDTSKNQVSLKLSSVTAADTAVYYCARVVYWGQGTLVTVSS VL: DIVMTQSPLSLPVTPGEPASISCRSSKSLLHSNGKTYLYWFLQKPGQSPQLLIYRMSNLASGVPDRFSGSGSGTDFTLKISRVEAEDVGVYYCMQHLEYPYTFGGGTKVEIK equals 9.00

New cases:
The recorded pEC50 for entry HFB2-4hz15-hG1DE (antibody, V domains shown, Humanized (VH3/VL1c), human IgG1 with S239D/I332E (hG1DE)) VH: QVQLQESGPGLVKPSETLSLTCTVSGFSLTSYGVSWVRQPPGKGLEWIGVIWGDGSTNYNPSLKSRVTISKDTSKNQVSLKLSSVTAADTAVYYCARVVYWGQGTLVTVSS VL: DIVMTQSPLSLPVTPGEPISLSCRSSKSLLHSNGKTYLYWFLQKPGQSPQLLLYRMSNLASGVPDRFSGSGSGTDFTLKISRVEAEDVGVYYCMQHLEYPYTFGGGTKLEIK equals 10.30
